List of enrichment ratio values.
B1: PhoQ; a variant is named by its letters at X, in order, P23837 (parent)
chain: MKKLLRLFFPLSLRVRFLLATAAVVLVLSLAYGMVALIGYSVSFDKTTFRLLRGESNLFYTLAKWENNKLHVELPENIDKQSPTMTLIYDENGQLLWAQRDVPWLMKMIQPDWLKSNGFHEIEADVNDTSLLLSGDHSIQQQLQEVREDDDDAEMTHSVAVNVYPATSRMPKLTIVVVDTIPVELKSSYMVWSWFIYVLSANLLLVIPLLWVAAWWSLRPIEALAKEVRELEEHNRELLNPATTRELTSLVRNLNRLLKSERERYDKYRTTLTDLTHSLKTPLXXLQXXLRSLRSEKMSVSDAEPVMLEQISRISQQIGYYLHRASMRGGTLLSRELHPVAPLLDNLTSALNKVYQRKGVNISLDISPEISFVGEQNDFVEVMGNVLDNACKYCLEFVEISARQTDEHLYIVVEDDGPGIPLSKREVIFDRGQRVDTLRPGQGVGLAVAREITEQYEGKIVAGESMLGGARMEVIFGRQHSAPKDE

# Variants of: B1
# Protocol Summary: enrichment ratio after two sorts for PhoP signalling (ratio (wild type AVST 3.29)); higher = more functional
# Condition: with PhoP (E. coli)
The full ranking holds about 140,000 sequences; the median of “enrichment ratio after two sorts for PhoP signalling” is about 0, and the highest 2% start at about 11. This excerpt belongs to a sample that is enriched for the highest values.

VGDV	≤ 0.25
GMRC	≤ 0.25
ANHV	≤ 0.25

Shifting focus to the variant that follows.
What value of enrichment ratio has been recorded for this entry: WMWW ≤ 0.25
